experimental-protocol: Pharmacokinetic study in male ICR mice
Assay type: in vivo, mouse
applied-conditions: male, ICR, mouse, plasma, iv, 2 mg/kg, male ICR mice, 2 mg/kg IV, individual animals (Mouse 1-3)
reported-metric: clearance (mL/min/kg)
Your answer is read as mL/min/kg, so omit the unit and give the number.

Given item CC1(C)CCC(c2ccc(Cl)cc2)=C(CN2CCN(c3ccc(C(=O)NS(=O)(=O)c4ccc(NCCCN5CCN(CCCC#Cc6cccc7c6CN(C6CCC(=O)NC6=O)C7=O)CC5)c(S(=O)(=O)C(F)(F)F)c4)cc3)CC2)C1 (stereo not shown) , the value recorded as its clearance is 10.4

* * *

experimental-protocol: Pharmacokinetic study in male ICR mice
Type: in vivo, mouse
applied-conditions: male, ICR, mouse, plasma, iv, 2 mg/kg, male ICR mice, 2 mg/kg IV, mean of 3 animals; read-out: Cmax
reported-metric: Cmax (ng/mL)
Your answer is read as ng/mL, so omit the unit and give the number.

Given item CC1(C)CCC(c2ccc(Cl)cc2)=C(CN2CCN(c3ccc(C(=O)NS(=O)(=O)c4ccc(NCCCN5CCN(CCCC#Cc6cccc7c6CN(C6CCC(=O)NC6=O)C7=O)CC5)c(S(=O)(=O)C(F)(F)F)c4)cc3)CC2)C1 (stereo not shown) , the value recorded as its Cmax is 13800

* * *

experimental-protocol: Pharmacokinetic study in male ICR mice
Format: in vivo, mouse
applied-conditions: male, ICR, mouse, plasma, iv, 2 mg/kg, male ICR mice, 2 mg/kg IV, mean of 3 animals; read-out: C0
reported-metric: C0 (µg/mL)
Your answer is read as µg/mL, so omit the unit and give the number.

Given item CC1(C)CCC(c2ccc(Cl)cc2)=C(CN2CCN(c3ccc(C(=O)NS(=O)(=O)c4ccc(NCCCN5CCN(CCCC#Cc6cccc7c6CN(C6CCC(=O)NC6=O)C7=O)CC5)c(S(=O)(=O)C(F)(F)F)c4)cc3)CC2)C1 (stereo not shown) , the value recorded as its C0 is 52.3

* * *

experimental-protocol: Pharmacokinetic study in male ICR mice
Type: in vivo, mouse
applied-conditions: male, ICR, mouse, plasma, po, 10 mg/kg, male ICR mice, 10 mg/kg PO, mean of 3 animals; read-out: MRT(0-t)
reported-metric: MRT last (h)
Your answer is read as h, so omit the unit and give the number.

Given item CC1(C)CCC(c2ccc(Cl)cc2)=C(CN2CCN(c3ccc(C(=O)NS(=O)(=O)c4ccc(NCCCN5CCN(CCCC#Cc6cccc7c6CN(C6CCC(=O)NC6=O)C7=O)CC5)c(S(=O)(=O)C(F)(F)F)c4)cc3)CC2)C1 (stereo not shown) , the value recorded as its MRT last is 3.73

* * *

experimental-protocol: Pharmacokinetic study in male ICR mice
Type: in vivo, mouse
applied-conditions: male, ICR, mouse, plasma, ip, 10 mg/kg, male ICR mice, 10 mg/kg IP, individual animals (Mouse 1-3; 0.50 twice); read-out: Tmax
reported-metric: Tmax (h)
Your answer is read as h, so omit the unit and give the number.

Given item CC1(C)CCC(c2ccc(Cl)cc2)=C(CN2CCN(c3ccc(C(=O)NS(=O)(=O)c4ccc(NCCCN5CCN(CCCC#Cc6cccc7c6CN(C6CCC(=O)NC6=O)C7=O)CC5)c(S(=O)(=O)C(F)(F)F)c4)cc3)CC2)C1 (stereo not shown) , the value recorded as its Tmax is 1

* * *

experimental-protocol: Pharmacokinetic study in male ICR mice
Assay type: in vivo, mouse
applied-conditions: male, ICR, mouse, plasma, ip, 10 mg/kg, male ICR mice, 10 mg/kg IP, mean of 3 animals
reported-metric: half-life
Remember to put the unit after the number in your answer.

Given item CC1(C)CCC(c2ccc(Cl)cc2)=C(CN2CCN(c3ccc(C(=O)NS(=O)(=O)c4ccc(NCCCN5CCN(CCCC#Cc6cccc7c6CN(C6CCC(=O)NC6=O)C7=O)CC5)c(S(=O)(=O)C(F)(F)F)c4)cc3)CC2)C1 (stereo not shown) , the value recorded as its half-life is 5.87 h
